- ASSAYED SYSTEM: Mouse 11b-HSD1 (Mus musculus)
- Sequence (P50172 whole entry): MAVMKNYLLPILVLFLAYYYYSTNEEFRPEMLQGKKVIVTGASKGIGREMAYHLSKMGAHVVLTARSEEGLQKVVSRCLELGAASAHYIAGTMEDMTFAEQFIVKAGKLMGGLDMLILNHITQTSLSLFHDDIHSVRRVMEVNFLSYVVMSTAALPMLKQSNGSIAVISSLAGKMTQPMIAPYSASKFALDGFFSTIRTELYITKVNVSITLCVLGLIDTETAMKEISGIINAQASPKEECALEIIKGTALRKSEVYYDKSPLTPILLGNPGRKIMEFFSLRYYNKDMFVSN
- ASSAY INFO: Inhibition of cortisone-to-cortisol conversion in CHO-K1 cells over-expressing mouse 11b-HSD1 (HTRF cortisol assay)
- STUDY CONDITIONS: CHO-K1 cells over-expressing mouse 11b-HSD1, 160 nM cortisone, 3 hours, 37° C.
pIC50: −log10 of the molar value.
Known pIC50 of a selection of molecules
MEASURED ATTRIBUTE: pIC50

[[record]]
chem_smiles = "Cc1cccc(C(=O)N[C@H]2C3CC4CC2C[C@](C(N)=O)(C4)C3)n1"
recorded_result = "6.30 to 7.00"

[[record]]
chem_smiles = "NC(=O)[C@]12CC3CC(C1)[C@@H](NC(=O)c1cc(-c4cccc(F)c4)on1)C(C3)C2"
recorded_result = "< 6.30"

[[record]]
chem_smiles = "Cn1c(C(=O)N[C@H]2C3CC4CC2C[C@](C(N)=O)(C4)C3)ccc1-c1cccc(Cl)c1"
recorded_result = "> 7.00"

[[record]]
chem_smiles = "Cn1cccc1C(=O)N[C@H]1C2CC3CC1C[C@](C(N)=O)(C3)C2"
recorded_result = "< 6.30"

[[record]]
chem_smiles = "NC(=O)[C@]12CC3CC(C1)[C@@H](NC(=O)c1ccc(-c4ccccc4Cl)o1)C(C3)C2"
recorded_result = "> 7.00"

[[record]]
chem_smiles = "NC(=O)[C@]12CC3CC(C1)[C@@H](NC(=O)c1ccc(-c4ccc(Cl)cc4)o1)C(C3)C2"
recorded_result = "6.30 to 7.00"

[[record]]
chem_smiles = "NC(=O)[C@]12CC3CC(C1)[C@@H](NC(=O)c1cccc(N4CCc5ccccc5C4)n1)C(C3)C2"
recorded_result = "> 7.00"

[[record]]
chem_smiles = "Cc1ccc(-c2ccc(C(=O)N[C@H]3C4CC5CC3C[C@](C(N)=O)(C5)C4)o2)cc1"
recorded_result = "6.30 to 7.00"

